# tgt: human GcgR (Homo sapiens)
# Sequence (P47871 26-477): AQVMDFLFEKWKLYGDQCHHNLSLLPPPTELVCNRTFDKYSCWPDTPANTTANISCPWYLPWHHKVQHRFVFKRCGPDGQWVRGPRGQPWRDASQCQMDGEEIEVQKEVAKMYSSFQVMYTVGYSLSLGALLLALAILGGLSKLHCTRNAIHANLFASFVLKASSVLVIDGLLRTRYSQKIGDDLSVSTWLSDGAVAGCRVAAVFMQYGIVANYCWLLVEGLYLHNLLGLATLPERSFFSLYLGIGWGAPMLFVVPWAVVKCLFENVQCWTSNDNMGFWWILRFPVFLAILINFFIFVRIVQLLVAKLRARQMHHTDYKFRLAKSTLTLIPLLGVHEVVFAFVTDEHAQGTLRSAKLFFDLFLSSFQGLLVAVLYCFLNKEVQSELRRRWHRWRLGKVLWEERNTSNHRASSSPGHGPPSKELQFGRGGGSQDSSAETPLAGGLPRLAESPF
# assayMethodText: Functional cAMP activity in the presence of 1% HSA
# Assay type: cell-based
# assayContext: read-out: cAMP Rel EC50, hGcgR
Starred links: 1 amine or outer side, 2 acyl side, 3 side chain; linkers in the order of their positions; H or OH if unused. Non-standard residues stand in square brackets, D forms with d. Groups on a side chain read outwards from the residue. No end group written: not given here. *: point of attachment. C18 diacid = O=C(O)CCCCCCCCCCCCCCCCC(=O)*; αMePhe(2-F) = C[C@](N)(Cc1ccccc1F)C(=O)O; γGlu = O=C(O)[C@H](CCC(=O)[*:2])N[*:1]; αMe4Pal = C[C@](N)(Cc1ccncc1)C(=O)O; αMeY = C[C@](N)(Cc1ccc(O)cc1)C(=O)O; 4Pal = N[C@@H](Cc1ccncc1)C(=O)O; αMeL = CC(C)C[C@](C)(N)C(=O)O; αMeS = C[C@](N)(CO)C(=O)O; Orn = NCCC[C@H](N)C(=O)O; AEEA = NCCOCCOCC(=O)O; Aib = CC(C)(N)C(=O)O
# EC50 per record follows
Report the value in nM with no unit label.

[[record]]
substance = "Y[Aib]QGTFTSD[4Pal]SQ[αMeL]LD[Orn]K([AEEA-γGlu-C18 diacid])AQ[αMe4Pal]QFIE[αMeY]LIE[Aib]GPSSGEPPPSGSEE-NH2 [Example 1098]"
resultnumber = 994

[[record]]
substance = "H-Y[Aib]QGTFTSD[4Pal]SQ[αMeL]LD[Orn]K([γGlu-γGlu-C18 diacid])AQ[αMe4Pal]AFIE[αMeY]LIE[Aib]GPSSGEPPPSGSEE-NH2 [Example 1093]"
resultnumber = 958

[[record]]
substance = "H-Y[Aib]QGTFTSDFS[Orn][αMeL]LDKK([AEEA-AEEA-γGlu-C18 diacid])AQ[Aib]AFIEYLLEGGPSSGAPPPGES-NH2 [Example 118]"
resultnumber = 2460

[[record]]
substance = "H-Y[Aib]QGTFTSDFS[Orn][αMeL]LDKK([AEEA-γGlu-C18 diacid])AQ[Aib]AFIEYLLE[dA]GPSS[Aib]APPPSGT-NH2 [Example 214]"
resultnumber = 302


Then this substance:
Query: Supply reported EC50 belonging to this substance: H-Y[Aib]QGT[αMePhe(2-F)]TSD[4Pal][αMeS]I[αMeL]LD[Orn]K([AEEA-γGlu-C18 diacid])AQ[αMe4Pal]EFI[dE][αMeY]LVEGGPSSGEPPPESE-NH2 [Example 1157]
Reply: 384
